Target under test: Dickkopf-related protein 1 (Homo sapiens) (UniProt O94907)
Sequence (O94907 whole entry, looked up): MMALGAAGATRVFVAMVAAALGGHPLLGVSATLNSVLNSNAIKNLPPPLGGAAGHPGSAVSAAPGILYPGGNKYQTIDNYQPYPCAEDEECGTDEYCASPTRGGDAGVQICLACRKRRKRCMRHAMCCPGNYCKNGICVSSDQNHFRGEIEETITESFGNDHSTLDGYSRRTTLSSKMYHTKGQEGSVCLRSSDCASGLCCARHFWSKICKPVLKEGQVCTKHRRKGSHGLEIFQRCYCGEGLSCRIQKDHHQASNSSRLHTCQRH
Measurement notes: small molecules binding DKK1 protein – biochemical, small-molecule microarray, 635 nm fluorescence scan, primary screen (AID 1106);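 also: score merges emission near 667 nm with signal to noise over three replicate slides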
Protocol conditions: higher = more signal
Readout name: composite z-score
Just the number, please, no unit after it.

Entry CC(C)C(=C=CC[C@H](O)c1ccccc1OCCO)CCO needs its composite z-score filled in; supply it. -0.679

Recall and state the measured composite z-score for NC(=O)[C@]1(Cc2ccccc2)N=C(c2ccc(OCCCO)cc2)O[C@@H]1c1ccccc1 . -0.109

Give the measured composite z-score for COC(=O)[C@@]1(Cc2ccc(OC)cc2)[C@H]2c3cc(C(=O)N4CCCC4)n(C[C@H](O)CO)c3C[C@H]2CN1C(=O)c1ccccc1 -0.385

###

Measurement notes: probe aWnt5a binding to arrayed compounds – biochemical, biotinylated probe, 635/667 nm fluorescence, primary screen (AID 1113);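 also: score merges 667 nm fluorescence intensity with signal-to-noise per printed feature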
Protocol conditions: small-molecule microarray, higher = more signal
Rule: composite z-score under 0.08 gives criterion not met, otherwise criterion met.

Quick check: does COCCOC(=O)N1C(=O)[C@@]2(c3cc(C#CCCO)ccc31)[C@H](c1ccc(O)cc1)N1[C@H](c3ccccc3)[C@H](c3ccccc3)OC(=O)[C@H]1[C@@H]2C(=O)N1CCCCCCC1 have composite z-score greater than or equal to 0.08? criterion met

Does composite z-score meet or surpass 0.08 for O=C1OCCC=C[C@H]2OC34C=CCN(c5ccc6ccccc6c5)C(=O)[C@H]3N(CCCCCCO)C(=O)[C@@H]4C12 (stereo partly specified) ? criterion not met

Hi team, for [N-]=[N+]=NCc1ccccc1C[C@@]1(C(=O)NCc2ccccc2)N=C(c2ccc(OCCCO)cc2)O[C@@H]1c1ccccc1CN=[N+]=[N-] , is the recorded composite z-score at or above 0.08? criterion met

Textbook exercise: given the entry O=C1C2C=CC(C(O)c3ccc(-c4ccccc4)s3)N(Nc3ccccc3F)C2C(=O)N1c1ccccc1 (stereo unspecified) , state whether its composite z-score is greater than or equal to 0.08. criterion not met

Does O=S(=O)(NCCCO)c1ccc(Br)cc1 have a reported composite z-score of at least 0.08? criterion not met

# bool: composite z-score of [N-]=[N+]=Nc1ccccc1[C@@H]1OC(c2ccc(OCCCO)cc2)=N[C@]1(CCS(=O)(=O)c1ccccc1)C(=O)O >= 0.08 criterion met

Dear colleague, could you confirm whether C=CCNC(=O)[C@H]1[C@@H]2C(=O)O[C@@H](c3ccccc3)[C@@H](c3ccccc3)N2[C@@H](c2ccc(OCCO)cc2)[C@]12C(=O)N(C(=O)OCCOC)c1ccc(C#CC3(O)CCCCCC3)cc12 has composite z-score at or above 0.08? criterion not met

Please check the record [N-]=[N+]=NCc1ccccc1[C@@H]1OC(c2ccc(OCCCO)cc2)=N[C@]1(Cc1ccccc1)C(=O)O and state if its composite z-score is at or above 0.08. criterion not met

Is composite z-score at least 0.08? Consider COC(=O)[C@@]1(Cc2ccc(F)cc2)[C@H]2c3cc(C(=O)N4CCCC4)n(CCc4ccc(OC)c(Br)c4)c3C[C@H]2CN1C(=O)c1ccccc1 criterion met

Kindly determine if composite z-score recorded for COCCCNC(=O)[C@@]1(Sc2ccc(C)cc2)CC(=O)N(Cc2ccccc2)[C@@H]1c1ccc(CO)cc1 is above or exactly 0.08. criterion not met

###

Target under test: Alpha-bungarotoxin (Bungarus multicinctus)
Measurement notes: compounds binding labelled alpha-BTX control protein – biochemical, small-molecule microarray, Alexa647 label, 635/667 nm fluorescence, artefact control for SMM control protein annotation, profiling panel (AID 1117)
Protocol conditions: alpha-BTX-A647 binding fluorescence, higher = more signal
The label depends only on composite z-score: true if it is at least 0.8, false if it is smaller.

Say whether COc1cc(NN2C(C(O)c3ccccc3)C=CC3C(=O)N(c4ccccc4)C(=O)C32)cc(OC)c1OC (stereo not given) shows composite z-score of 0.8 or more. false

Identify whether the reported composite z-score of the following compound is 0.8 or greater: Cc1ccc(S(=O)(=O)N2CC(C(=O)O)=CCC2c2ccccc2)cc1 (stereo not given) false

Hello, I need to know if COC(=O)[C@@]1(Cc2ccc(F)cc2)[C@H]2c3cc(C(=O)N(C)C)n(CCCNc4ccc(C(F)(F)F)cc4Cl)c3C[C@H]2CN1C(=O)c1ccccc1 has measured composite z-score not below 0.8. Thanks! true

Item O=C1O[C@@H](c2ccccc2)[C@@H](c2ccccc2)N2[C@@H](c3ccc(O)cc3)[C@]3(C(=O)Nc4ccc(C#CCCO)cc43)[C@@H](C(=O)N3CCCCCCC3)[C@H]12 with composite z-score of 0.8 or above? true

Hello, I need to know if O=C(N1CCCCC1)[C@]1(CCS(=O)(=O)c2ccccc2)N=C(c2ccc(OCCCO)cc2)O[C@@H]1c1ccccc1 has measured composite z-score not below 0.8. Thanks! true

Determine whether this compound has composite z-score no lower than 0.8: COCCOC(=O)N1C(=O)[C@@]2(c3cc(C#Cc4ccc(OC)cc4)ccc31)[C@H](c1ccc(O)cc1)N1[C@H](c3ccccc3)[C@H](c3ccccc3)OC(=O)[C@H]1[C@@H]2C(=O)N1CCN(c2ncccn2)CC1 true

Decide: is the reported value of composite z-score for Cc1ccc(S[C@]2(C(=O)NCCCN(C)C)CC(=O)N(C(C)C)[C@@H]2c2ccc(CO)cc2I)cc1 equal to or greater than 0.8? false

Hi, just wondering whether COC(=O)[C@@]1(Cc2ccc(OC)cc2)[C@H]2c3cc(C(=O)N4CCCC4)n(CCc4ccccn4)c3C[C@H]2CN1C(=O)c1ccccc1 shows composite z-score of 0.8 or higher. false

Say whether COc1ccccc1CN1C(=O)c2ccccc2[C@](Cc2ccccc2I)(C(=O)NC2CC2)[C@@H]1c1ccc(CO)cc1 shows composite z-score of 0.8 or more. true

// inclusive: composite z-score at least 0.8? input: O=C1C2C=CC(C(O)CCc3ccccc3)N(Nc3ccccc3)C2C(=O)N1c1ccccc1 (stereo not given) true

Exam item: decide whether the reported composite z-score for COC(=O)[C@@]1(Cc2ccc(OC)cc2)[C@H]2c3cc(C(=O)N4CCCC4)n(C[C@H](O)CO)c3C[C@H]2CN1C(=O)c1ccccc1 is at least 0.8. false

# bool: composite z-score of C[N+](C)(C)CCCC[C@@H]1NC(=O)[C@@H]2C[C@H](C(=O)NCCCCCCNC(=O)CS)[C@H](c3cccc(OCCO)c3)N2C1=O >= 0.8 true

Determine whether measured composite z-score meets or exceeds 0.8 for C#C[C@H]1Oc2ccccc2S(=O)(=O)N2CCC[C@@H]12 false

I'd appreciate it if you could say whether O=S(=O)(NCCCO)c1ccc(Br)cc1 has composite z-score at least equal to 0.8. false

###

Measurement notes: optical density shifts of acrAB sulA E. coli – strain DRC41, OD650, 48 h, E. coli filamentation inducer project, primary screen (AID 1152);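 also: E. coli MC1000 strain DRC41 lacking acrAB efflux pump and sulA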
Protocol conditions: higher = more signal, called active from +8 up or from −8 down
Class true (1): z-score at least 2. Class false (0): z-score below 2.

Check the entry CC(C)NC(=O)[C@@]1(c2ccc([N+](=O)[O-])cc2)CC(=O)N(C(C)C)[C@@H]1c1ccc(CO)cc1 : does z-score equal or exceed 2? false (0)

Exam item: decide whether the reported z-score for COC(=O)c1nc2oc1CC[C@@H](CO)NC(=O)N(C)Cc1cn(nn1)C[C@H](Cc1ccccc1)NC2=O is at least 2. true (1)

Record C=CCC(OC(C)=O)[C@@H]1[C@@H](N(Cc2ccc(-c3ccccc3)cc2)C(=O)c2ccc(C)cc2)c2cc(OCCCO)ccc2N1C(=O)c1ccc2ccccc2n1 (stereo not given in full) ; criterion: z-score no lower than 2. Met? true (1)

Determine whether measured z-score meets or exceeds 2 for COc1ccc(C(O)C2C=CC3C(=O)N(c4ccccc4)C(=O)C3N2Nc2ccccc2)c2ccccc12 (stereo not given) false (0)

Please indicate if the recorded z-score for Cc1ccc(S[C@]2(C(=O)NCC(C)C)CC(=O)N(Cc3ccccc3)[C@@H]2c2ccc(CO)cc2)cc1 meets or exceeds 2. false (0)

###

Measurement notes: growth of efflux-deficient E. coli DRC39 – strain DRC39, OD650, 24 h, E. coli filamentation inducers, primary screen (AID 1178);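 also: growth measured as culture turbidity by optical density at 650 nm; test concentration not given here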
Protocol conditions: E. coli DRC39 acrAB, higher = more signal, called active from +8 up or from −8 down
Readout name: z-score
When you answer, write just the number.

Supply measured z-score of Cc1ccc(S(=O)(=O)N2CC(C(=O)O)=CCC2c2ccccc2)cc1 (stereo unspecified) in your reply. -1.28

// Input: CN(C)CCCN1C(=O)[C@@]2(c3ccc([N+](=O)[O-])cc3)CC(=O)N(C3CCCCC3)[C@@H]2c2ccc(CO)cc21 . Output its z-score only. 0.244

Quote z-score reported for C=CC[C@@]1(C(=O)NCCN2CCOCC2)N=C(c2ccc(OCCCO)cc2)O[C@@H]1c1ccccc1CN=[N+]=[N-] please. 0.677

Respond only with z-score recorded for O=[N+]([O-])c1ccc(C[n+]2ccc(CCCO)cc2)o1 -1.4

Give the reported z-score for this compound. CCOC(=O)N1C(c2ccc(OCCCO)cc2)=NC(C(=O)OC)N1C(=O)OCC (stereo unspecified) 0.857

Specify measured z-score for COc1ccc(CCNC(=O)[C@@]2(C)c3ccccc3C(=O)N(Cc3ccccc3)[C@H]2c2ccc(CO)cc2)cc1 . 0.605

Write down z-score measured for item O=c1cccc(-c2ccccc2)o1 -0.438

Consider the compound C=CCN1Cc2ccccc2C[C@]2(N=C(c3ccc(OCCCO)cc3)O[C@@H]2c2ccccc2)C1=O . State its measured z-score. 1.13

Could you please provide reported z-score for CN(C)CCCC[C@@H]1NC(=O)[C@@H]2C[C@H](C(=O)NCCCCCN)[C@H](c3ccc(O)cc3)N2C1=O ? Thanks! 0.591

Give the measured z-score for Cc1ccc(S[C@]2(C(=O)NCCN3CCOCC3)CC(=O)N(C3CCCCC3)[C@@H]2c2ccc(CO)cc2)cc1 0.048

Identify measured z-score corresponding to COCC1C2CC[C@H]3C(OCc4ccc(F)cc4C(F)(F)F)OC[C@]4(C)[C@H]3C2=C(CN4C(=O)OC(C)(C)C)[C@H](C)C1COC (stereo partly specified) -0.93
